assay comment: Plasma glucose-lowering activity at a dosage of 0.005% in the diet in KKA(y) mice.
Format: functional, Mus musculus
attribute measured: Activity
Please reply with the value in numeric form only.

Sample records with Activity:
Cc1oc(-c2ccccc2)nc1COc1ccc(CCCC2OC(=O)NC2=O)cc1 (stereo unspecified)    61
Cc1oc(-c2ccccc2)nc1COc1ccc(CCCC2OC(=O)NC2=O)cn1 (stereo unspecified)    54
Cc1oc(-c2ccccc2)nc1CCOc1ccc(CCC2OC(=O)NC2=O)cc1 (stereo unspecified)    56

[Q] Requested field: Activity. Item: Cc1oc(-c2ccccc2)nc1CCC(O)c1ccc(CCCC2OC(=O)NC2=O)cc1 (stereo unspecified)
[A] 23

[Q] One more compound: Cc1oc(-c2cccc3ccccc23)nc1COc1ccc(CCCC2OC(=O)NC2=O)cc1 (stereo unspecified)
[A] 23

[Q] One more compound: Cc1oc(-c2ccccc2)nc1CCOc1ccc(CCC2SC(=O)NC2=O)cc1 (stereo unspecified)
[A] 14

[Q] One more compound: Cc1sc(-c2ccccc2)nc1COc1ccc(CCCC2OC(=O)NC2=O)cc1 (stereo unspecified)
[A] 43

[Q] One more compound: Cc1oc(-c2ccco2)nc1COc1ccc(CCCC2OC(=O)NC2=O)cc1 (stereo unspecified)
[A] 61

[Q] One more compound: Cc1oc(-c2ccccc2)nc1COc1ccc(CC2OC(=O)NC2=O)cc1 (stereo unspecified)
[A] 29

[Q] One more compound: Cc1oc(-c2ccccc2)nc1CCOc1ccc(CCCCCC2OC(=O)NC2=O)cc1 (stereo unspecified)
[A] 23

[Q] One more compound: O=C1NC(=O)C(CCCc2ccc(OCc3coc(-c4ccccc4)n3)cc2)O1 (stereo unspecified)
[A] 44

[Q] One more compound: Cc1oc(-c2ccc3ccccc3c2)nc1COc1ccc(CCCC2OC(=O)NC2=O)cc1 (stereo unspecified)
[A] 55

[Q] One more compound: Cc1oc(-c2ccccc2)nc1COc1ccc(CCCC2SC(=O)NC2=O)cc1 (stereo unspecified)
[A] 48
